Cited source for all entries: patent US20220282217A1

measurement-target: HLA-B08.01 (Homo sapiens, UniProt P01889, A93T/A95T/D138N/E176V/E187T/K202T/Q94N/R180D/S35A/V36M/Y33D/Y91F)
experiment-notes: Class I MHC peptide binding stability (pMHC-I dissociation, 125I-labeled light chain)
run-conditions: Allele B08.01
Where a SMILES comes first, the peptide text is derived from it.
property: Stability (T1/2 (h))
Express the result in h but write the number alone.

Known results for compounds:
CSCC[C@H](NC(=O)[C@H](Cc1c[nH]c2ccccc12)NC(=O)[C@H](Cc1c[nH]cn1)NC(=O)[C@H](CC(N)=O)NC(=O)[C@H](CCCNC(=N)N)NC(=O)[C@H](CCCNC(=N)N)NC(=O)[C@H](CCC(N)=O)NC(=O)[C@H](CO)NC(=O)[C@@H]1CCCN1C(=O)[C@@H](N)CC(C)C)C(=O)O :: 0.7
CC(C)C[C@H](NC(=O)[C@@H]1CCCN1C(=O)[C@H](CS)NC(=O)[C@H](CC(C)C)NC(=O)[C@H](Cc1c[nH]cn1)NC(=O)[C@H](CC(N)=O)NC(=O)CNC(=O)[C@H](CC(C)C)NC(=O)[C@@H](N)CO)C(=O)O :: 0.5

Give the reported value of Stability (T1/2 (h)) for this record: CC[C@H](C)[C@H](NC(=O)[C@H](Cc1ccc(O)cc1)NC(=O)[C@H](CCCCN)NC(=O)CNC(=O)[C@H](CCCNC(=N)N)NC(=O)[C@H](CCCCN)NC(=O)[C@H](Cc1c[nH]cn1)NC(=O)[C@H](CC(C)C)NC(=O)[C@@H](N)Cc1c[nH]c2ccccc12)C(=O)O (H-WLHKRGKYI-OH; N-terminus and C-terminus assumed)
1.3

Determine from records and report Stability (T1/2 (h)) for CSCC[C@H](NC(=O)[C@@H](NC(=O)[C@H](Cc1ccc(O)cc1)NC(=O)[C@H](C)NC(=O)[C@H](CCSC)NC(=O)[C@@H](NC(=O)[C@@H](N)Cc1ccc(O)cc1)C(C)C)C(C)C)C(=O)N[C@@H](C)C(=O)NCC(=O)O
1.2

Given CC[C@H](C)[C@H](NC(=O)[C@H](CCCCN)NC(=O)[C@H](CO)NC(=O)[C@H](CCC(=O)O)NC(=O)[C@H](C)NC(=O)[C@H](CCCCN)NC(=O)[C@H](CC(C)C)NC(=O)[C@H](Cc1ccccc1)NC(=O)[C@H](CCSC)NC(=O)[C@@H](N)Cc1ccc(O)cc1)C(=O)O , respond with its Stability (T1/2 (h)).
0.4
